The values you see were collected from ChEMBL document CHEMBL3826877.

pIC50 values for the compounds below.
Assay System: Fatty-acid amide hydrolase 1 (Rattus norvegicus, UniProt P97612)
Sequence (P97612 whole entry): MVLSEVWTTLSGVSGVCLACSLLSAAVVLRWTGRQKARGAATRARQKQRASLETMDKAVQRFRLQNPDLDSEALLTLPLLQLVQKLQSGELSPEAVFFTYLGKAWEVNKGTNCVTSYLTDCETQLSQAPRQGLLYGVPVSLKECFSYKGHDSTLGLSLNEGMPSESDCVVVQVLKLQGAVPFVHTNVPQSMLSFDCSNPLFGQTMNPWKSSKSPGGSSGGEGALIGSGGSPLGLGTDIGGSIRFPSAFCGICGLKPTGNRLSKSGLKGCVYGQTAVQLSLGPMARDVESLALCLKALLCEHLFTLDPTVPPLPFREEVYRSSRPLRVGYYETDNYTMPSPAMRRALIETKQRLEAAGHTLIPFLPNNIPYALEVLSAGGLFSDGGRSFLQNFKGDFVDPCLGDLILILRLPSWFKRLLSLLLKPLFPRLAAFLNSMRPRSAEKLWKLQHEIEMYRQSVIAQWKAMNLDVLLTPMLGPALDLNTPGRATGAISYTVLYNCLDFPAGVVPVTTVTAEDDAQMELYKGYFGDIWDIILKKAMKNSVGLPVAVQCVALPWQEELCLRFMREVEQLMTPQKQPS
Procedure Summary: Inhibition of FAAH in rat brain membrane using N-arachidonoyl-[14C]-ethanolamine as substrate incubated for 30 mins by scintillation counting method
Assay type: cell membranes
pIC50 is a log-scale quantity: -log10 of the concentration expressed in molar.

                              line_notation  test_readout  recorded_measurement
0  CCCCCCCNC(=O)Oc1cccc(CN(C)CCCOc2ccc3ccc(=O)oc3c2)c1         pIC50                  6.79
1  CN(CCCOc1ccc2c(c1)oc(=O)c1ccccc12)Cc1cccc(OC(=O)NCCCCCc2ccccc2)c1         pIC50                  5.74
2  O=C(NCCCCCc1ccccc1)Oc1ccc(-n2cc(COc3ccc4ccc(=O)oc4c3)nn2)cc1         pIC50                  6.63
3  O=C(NCCCCCc1ccccc1)Oc1cccc(Cn2cc(COc3ccc4ccc(=O)oc4c3)nn2)c1         pIC50                  6.80
4  CCCCCCCNC(=O)Oc1cccc(CN(C)CCCOc2ccc3c4c(c(=O)oc3c2)CCCC4)c1         pIC50                  5.60

What does the data say about its pIC50? Entry: CCCCCCCNC(=O)Oc1cccc(-n2cc(COc3ccc4ccc(=O)oc4c3)nn2)c1
7.21

I have this compound here, O=C(NCCCCCc1ccccc1)Oc1cccc(-n2cc(COc3ccc4ccc(=O)oc4c3)nn2)c1 , and I need its recorded pIC50.
6.68

Given Cc1cc(=O)oc2cc(OCCCN(C)Cc3cccc(OC(=O)NCCCCCc4ccccc4)c3)ccc12 , state its recorded pIC50.
6.34

For the compound CN(CCCOc1ccc2c3c(c(=O)oc2c1)CCCC3)Cc1cccc(OC(=O)NCCCCCc2ccccc2)c1 , what pIC50 is on record?
5.46

Any idea what its pIC50 is? The compound is CN(CCCOc1ccc2cc(-c3ccccc3)c(=O)oc2c1)Cc1cccc(OC(=O)NCCCCCc2ccccc2)c1
5.73

What measured pIC50 goes with CCCCCCCNC(=O)Oc1ccc(-n2cc(COc3ccc4ccc(=O)oc4c3)nn2)cc1 ?
6.78

// pIC50 lookup, key: CCCCCCCNC(=O)Oc1ccc(Cn2cc(COc3ccc4ccc(=O)oc4c3)nn2)cc1
6.45

Requested read-out: pIC50. Entry: CCCCCCCNC(=O)Oc1cccc(CN(C)CCCCCOc2ccc3ccc(=O)oc3c2)c1
5.89
